Data origin, for the record: patent US8236819B2

molecular target: RXR (Homo sapiens); assay: RXR co-transfection assay (GAL4 fusion, luciferase reporter, HEK293 cells)
Sequence (P19793 227-458 limits assumed): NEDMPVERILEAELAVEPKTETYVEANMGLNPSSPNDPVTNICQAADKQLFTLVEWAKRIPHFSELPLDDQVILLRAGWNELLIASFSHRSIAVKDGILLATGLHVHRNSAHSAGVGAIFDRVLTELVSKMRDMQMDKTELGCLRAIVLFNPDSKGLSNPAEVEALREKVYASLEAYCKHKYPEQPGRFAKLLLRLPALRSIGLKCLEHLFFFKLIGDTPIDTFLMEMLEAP
Measurement Type: EC50 (nM)

1) Cc1cc2c(cc1-c1cc(/C=C/C(=O)O)ccc1OCC(F)(F)F)N(C(C)C)C(=O)CC2(C)C: 23.1

a: Cc1cc2c(cc1-c1cc([C@@H]3C[C@H]3C(=O)O)ccc1OC(F)(F)F)N(C)C(=O)CC2(C)C (racemic)
b: Cc1cc2c(cc1-c1cc(/C=C/C(=O)O)ccc1OC(F)(F)F)N(C(C)C)C(=O)CC2(C)C
c: Cc1cc2c(cc1-c1cc(CCC(=O)O)ccc1OC(F)(F)F)N(C(C)C)C(=O)CC2(C)C
Query: Sequence the entries by EC50, beginning with the highest number. Provide the ranking by listing each label in its place in the requested order.
Reply: a, b, c

----------
tested on: ABCA1 mRNA in THP-1 cells; assay: ABCA1 bDNA assay (ABCA1 mRNA induction); assay type: cell-based, human; conditions: Homo sapiens, THP-1, THP-1 cells, ABCA1 mRNA induction
Measurement Type: EC50 (nM)

a: Cc1cc2c(cc1-c1cc(/C=C/C(=O)O)ccc1OCC(F)(F)F)N(C(C)C)C(=O)CC2(C)C
b: COc1ccc(/C=C/C(=O)O)cc1-c1cc2c(cc1C)C(C)(C)CC(=O)N2C(C)C
c: Cc1cc2c(cc1-c1cc(/C=C/C(=O)O)ccc1OC(F)(F)F)N(C)C(=O)CC2(C)C
Query: Highest EC50 first, then in falling order down to the smallest. Provide the ranking by listing each label in its place in the requested order.
Reply: b, c, a

----------
system: ABCA1 mRNA in THP-1 cells; experiment: ABCA1 bDNA assay (ABCA1 mRNA induction); assay type: cell-based, human; conditions: Homo sapiens, THP-1, THP-1 cells, ABCA1 mRNA induction
pEC50: −log10 of the molar value.
Measurement Type: pEC50

Some molecules with known pEC50 results, for comparison:
1. COc1ccc([C@@H]2C[C@H]2C(=O)O)cc1-c1cc2c(cc1C)C(C)(C)CC(=O)N2C(C)C (racemic): 5.82
2. CCN1C(=O)CC(C)(C)c2cc(C)c(-c3cc(CCC(=O)O)ccc3OC(F)(F)F)cc21: 7.33

I: CCN1C(=O)CC(C)(C)c2cc(C)c(-c3cc(C(C)CC(=O)O)ccc3OC(F)(F)F)cc21 (stereo not shown)
II: CCN1C(=O)CC(C)(C)c2cc(C)c(-c3cc(/C=C\C(=O)O)ccc3OC(F)(F)F)cc21
Query: # query: argmin of pEC50 over I and II Lab note: record the label of whichever item you select.
Reply: II
(II: 6.05, I: 6.46)
